Measured apparent Kd values are reported for all entries that follow.
Test system: MS2 coat protein
Test: apparent Kd, MS2 coat protein; higher = weaker binding; RNA-MaP array; FMN 200 µM where present
Details: designed as: ON switch for flavin mononucleotide; no ligand
Give the quantity in nM, number only.

[
  {
    "sequence-record": "GGUCCCUACGCACAGGAUAUUCUUUUGGCAACAUGAGGAUCACCCAUGUGUGCCGAUCAUGGUUAGAAGAAGGGUGGUAGGGACC",
    "observed-value": 20.6
  },
  {
    "sequence-record": "CGCCGACAUGAGGAUCACCCAUGUCACAUCUGGUCAGGAUAUGGUAUGAUUUGGCUAUUGCCAGAAGGGACCUCAG",
    "observed-value": 48.9
  },
  {
    "sequence-record": "GAGAGAGGAUGAGGAUAUGCAGUAAUAAUGAUAGCAGAAGGCAUAGACAUGAGGAUCACCCAUGUGGGAAUAAUCCAGAGAGAG",
    "observed-value": 188
  }
]

Read the next record carefully.
Lookup: Any idea what its apparent Kd is? The sequence is GUGGCUGUUAGGCUUGCGUCGGCGACAGAAGGCCAACAUGAGGAUCACCCAUGUACAAAGACCAUGGAGGAUAUGUUGCCAAUG
Found: 58.2

====

Known apparent Kd of a selection of sequences
Tested on: MS2 coat protein
Test: apparent Kd, MS2 coat protein; higher = weaker binding; RNA-MaP array; theophylline 2 mM where present
Settings: designed as: ON switch for theophylline; no ligand
The reply should contain only the number, in nM.

Use the examples below as a reference point.
[
  {
    "sequence-record": "CUGCCAUGCAGAGAUACCAGUGCGCUCAGCACAUGAGGAUCACCCAUGUCGGCUGCCGAUCACCCUUGGCAGCUCUGCAUGGCAG",
    "observed-value": 11.4
  },
  {
    "sequence-record": "AAUAACAUGAGGAUCACCCAUGUAAAAGAUACCAGAUGCAUGAUGAUCCCUUGGCAGCUUAAAACGCGAUUGGAAACAAUCGCGA",
    "observed-value": 31.2
  },
  {
    "sequence-record": "AUGUCGUUGAAUACAGCGGCAUGGAGUGAUACCAGAAUGAUCAAAUUCCCUUGGCAGCAUGACAUGAGGAUCACCCAUGUUCGAU",
    "observed-value": 111
  }
]

Lookup: Test system MS2 coat protein; read-out apparent Kd; what value for UCUUUCUAUGUAGAUACCAGCAUGUUAUAUUUCUAAUGACAUGAGGAUCACCCAUGUAAAUGCCCUUGGCAGCUACAUUUUCUUU ?
Found: 23.1

====

System: MS2 coat protein
Assay: apparent Kd, MS2 coat protein; higher = weaker binding; RNA-MaP array
Conditions: designed as: OFF switch for flavin mononucleotide; no ligand
Label rule, in plain words: apparent Kd of 20 nM and up is yes (1), under 20 nM is no (0).

Lookup: Quick check: does AUCGCGACAGGAUAUACAUGAGGAUCACCCAUGUUGAUGAGCGAGCAUCGGACUGAGAGUAGAAGGGUCGGCUC have apparent Kd greater than or equal to 20 nM?
Found: no (0)

Lookup: Assess whether reported apparent Kd for UACAUUCGUCAGGAUAUCCAUCAGCCAGGCCUCGGAGAAGGGACUACAUGAGGAUCACCCAUGUGUAACCUCGU sits at 20 nM or higher.
Found: yes (1)

Lookup: For this sequence, is measured apparent Kd 20 nM or higher? GACCGGUAUCCAGGAUAUGCAAUUAUUUACAUGAGGAUCACCCAUGUCGCAAGAGUAGGGGUGUAGCAGAAGGGGACAACAGCA
Found: yes (1)

Lookup: Textbook exercise: given the entry AGAAGACAUGAGGAUCACCCAUGUGAGGAUAUUACACUAGAAAACAGCCGCGUCUCGGUAAGAAGGCACUAUGG , state whether its apparent Kd is greater than or equal to 20 nM.
Found: yes (1)

Lookup: Is reported apparent Kd greater than or equal to 20 nM here: GAAAUCAGAGGAUAUCAGUCAUGUCACAUGAGGAUCACCCAUGUUUGUGUUUUGGUAGAUUGAGAAGGCUGCGACC
Found: no (0)
